Data credit: patent US20150368338A1

TARGET DESC: IFN-αH2 (human, UniProt P01570 24-189)
EXPERIMENTAL PROTOCOL: cell-based or functional assay
REPORTED METRIC: IC50, ISRE assay (nM)
Report as a plain number; the unit nM is understood.

Problem: Field request: IC50, ISRE assay | item: IFWM3332 (antibody, IgG1, V domains shown) VH: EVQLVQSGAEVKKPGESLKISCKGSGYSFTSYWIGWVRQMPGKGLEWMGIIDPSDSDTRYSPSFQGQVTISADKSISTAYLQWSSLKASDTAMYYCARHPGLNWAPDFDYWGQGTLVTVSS VL: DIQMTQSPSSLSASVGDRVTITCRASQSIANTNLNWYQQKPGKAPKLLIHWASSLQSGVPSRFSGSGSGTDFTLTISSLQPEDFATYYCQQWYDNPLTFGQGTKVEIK
Solution: 0.092

Problem: Name the recorded IC50, ISRE assay for IFWM3400 (antibody, IgG1, V domains shown, mAb; IgG1/kappa said of the parent and of selected mAbs; also called IFWB3135) VH: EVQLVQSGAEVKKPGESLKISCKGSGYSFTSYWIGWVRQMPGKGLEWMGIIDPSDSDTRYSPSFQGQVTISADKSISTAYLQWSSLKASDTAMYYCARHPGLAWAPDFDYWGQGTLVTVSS VL: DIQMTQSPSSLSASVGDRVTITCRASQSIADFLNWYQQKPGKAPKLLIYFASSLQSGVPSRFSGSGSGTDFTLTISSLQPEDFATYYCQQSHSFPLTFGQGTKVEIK .
Solution: 0.015

Problem: Bench note: what IC50, ISRE assay did IFWM3385 (antibody, IgG1, V domains shown, mAb; IgG1/kappa said of the parent and of selected mAbs; also called IFWB3120) VH: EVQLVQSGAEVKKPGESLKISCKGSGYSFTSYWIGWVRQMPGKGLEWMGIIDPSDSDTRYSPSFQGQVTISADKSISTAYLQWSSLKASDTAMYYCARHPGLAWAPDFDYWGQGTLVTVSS VL: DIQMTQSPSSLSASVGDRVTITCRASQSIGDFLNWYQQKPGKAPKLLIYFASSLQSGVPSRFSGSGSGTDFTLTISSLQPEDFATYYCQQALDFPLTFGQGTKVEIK show?
Solution: 0.029

Problem: Look at this binder and give its reported IC50, ISRE assay. IFWM3307 (antibody, IgG1, V domains shown) VH: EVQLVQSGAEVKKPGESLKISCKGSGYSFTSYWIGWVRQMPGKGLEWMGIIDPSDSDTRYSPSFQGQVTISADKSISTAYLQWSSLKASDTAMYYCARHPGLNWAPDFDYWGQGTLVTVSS VL: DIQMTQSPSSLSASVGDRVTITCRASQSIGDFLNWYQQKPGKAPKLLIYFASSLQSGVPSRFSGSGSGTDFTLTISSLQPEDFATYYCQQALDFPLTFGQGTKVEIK
Solution: 0.088

Problem: Form field: reported IC50, ISRE assay of IFWM3320 (antibody, IgG1, V domains shown) VH: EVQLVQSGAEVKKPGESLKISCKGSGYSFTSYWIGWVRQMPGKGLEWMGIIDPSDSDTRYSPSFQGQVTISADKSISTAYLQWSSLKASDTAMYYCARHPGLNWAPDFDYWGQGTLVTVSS VL: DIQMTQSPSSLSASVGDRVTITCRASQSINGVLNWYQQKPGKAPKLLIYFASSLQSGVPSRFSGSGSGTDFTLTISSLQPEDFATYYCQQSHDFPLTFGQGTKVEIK
Solution: 0.023

Problem: Need IC50, ISRE assay of IFWM3321 (antibody, IgG1, V domains shown) VH: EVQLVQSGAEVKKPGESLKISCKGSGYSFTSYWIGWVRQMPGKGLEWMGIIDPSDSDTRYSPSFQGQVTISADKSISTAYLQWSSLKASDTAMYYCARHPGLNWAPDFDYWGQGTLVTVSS VL: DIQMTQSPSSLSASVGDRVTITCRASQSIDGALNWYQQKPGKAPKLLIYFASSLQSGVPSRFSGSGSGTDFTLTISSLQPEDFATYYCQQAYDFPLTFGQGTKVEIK , thanks.
Solution: 0.028

Problem: Report IC50, ISRE assay for IFWM3314 (antibody, IgG1, V domains shown) VH: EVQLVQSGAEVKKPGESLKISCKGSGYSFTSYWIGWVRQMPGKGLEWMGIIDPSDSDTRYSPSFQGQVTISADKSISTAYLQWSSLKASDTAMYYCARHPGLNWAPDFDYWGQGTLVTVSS VL: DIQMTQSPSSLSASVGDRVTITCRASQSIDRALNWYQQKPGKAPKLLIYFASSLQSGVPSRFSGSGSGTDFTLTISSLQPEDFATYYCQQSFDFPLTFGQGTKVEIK please.
Solution: 0.04
